Test system: PfAP2-I AP2 domain 3 (GST-tagged)
ASSAY: gcPBM binding intensity (ln(normalized median fluorescence intensity)); higher = stronger DNA binding
Over roughly 25,000 sequences, “ln(normalized median fluorescence intensity)” has its median near 7.9; the highest 2% begin near 11. Many of the other results were omitted from the sample, so the highest values are more common in it than they were.
MEASURED_ATTRIBUTE: gcPBM binding intensity (ln)
The response must contain the number and no unit.

Task: Quick check: gcPBM binding intensity (ln) on PfAP2-I AP2 domain 3 (GST-tagged), item AGAATTATTGTTAATGCATGTGGAAGTTAAAATATT [TGCATGCA_site188] ?
Result: 8.48

Task: Another sequence to look at: TTTATATTAATTGATGTGCACTGAAATATTTGTCCA [GTGCAC_site9655]
Result: 10.3

Task: Another sequence to look at: TTTATTTGTGCATATACACACTTAAATATGTTTATT [CACACA_site7772]
Result: 9.4

Task: Another sequence to look at: TTGTTAATAAAAATATTGGAAAGTTTATAAAATTTT [CACACA_negctrl_site1487]
Result: 7.53

Task: Another sequence to look at: ATGAATAAATGAACATGTACATATATATATATATTA [XGTACX_site5005]
Result: 7.76

Task: Another sequence to look at: ATATATATATATTTTACACACAATGGAGAAAAAAAT [CACACA_site644]
Result: 9.01

Task: Another sequence to look at: GATATAATGTGTTTGGTATTCTTGATAGATAGTTTT [CACACA_negctrl_site1711]
Result: 7.7

Task: Another sequence to look at: CATTAATTTAATAAATGTACATAAAATATATATTAT [XGTACX_site8085]
Result: 7.89

Task: Another sequence to look at: ACATATATTTTTTTTTGTACATATAAATATATATAT [XGTACX_site6491]
Result: 8.7
